Test system: CAMKK2
Conditions: concentration: 1 μM,replicates: in singlicate; n = 1;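 note: KINOMEscan kinase panel screen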
Catalogue of %Inh values
quantity: %Inh (%)

• O=C(Nc1ccc(Oc2ccc3nc(NC(=O)C4CC4)cn3n2)c(F)c1)c1cccn(-c2ccccc2)c1=O = 1
• O=C(NCC1CC1)c1ccc(-c2cc(C(=O)NC3CC3)ccc2F)cc1 = 0
• O=c1[nH]cc(-c2ccc(O)cc2)c2sc(-c3ccncc3)cc12 = 15
• COc1cc(Nc2nccc(N3CCC(NC(=O)c4cccc(C#N)c4)C3)n2)cc(OC)c1OC (stereo not shown) = 3

----------
Test system: WNK1
Conditions: concentration: 1 μM,replicates: in singlicate; n = 1
quantity: %Inh (%)

- Cc1ccc(C(=O)Nc2ccc(Oc3ccc4nc(NC(=O)C5CC5)cn4c3)c(F)c2)c(=O)n1-c1ccccc1: 0
- Cl.Nc1n[nH]c2cc(-c3ccccn3)ccc12 [GSK2189892]: 0
- Cn1ccc2ncnc(Oc3ccc(NC(=O)Nc4cccc(C(F)(F)F)c4)c(F)c3)c21: 0
- Cc1n[nH]c2cc(Nc3ccnc(Nc4cccc(CN5CCOCC5)c4)n3)ccc12 [GW682569]: 8
- CCn1c(-c2nonc2N)nc2cncc(Br)c21 [SB-738004]: 0

Each recorded value in this set is attributed to paper PMC5540273.
